TARGET_OR_SYSTEM: hnRNPA2 1-189 (tandem RRMs) (UniProt P22626-2 1-189)
Sequence (P22626 other isoform, or with tags, fused parts or gaps): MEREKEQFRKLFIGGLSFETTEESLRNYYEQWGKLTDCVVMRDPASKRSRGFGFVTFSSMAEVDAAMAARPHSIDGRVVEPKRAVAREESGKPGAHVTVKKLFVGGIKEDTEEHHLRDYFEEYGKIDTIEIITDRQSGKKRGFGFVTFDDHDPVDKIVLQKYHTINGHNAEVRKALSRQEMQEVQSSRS
EXPERIMENTAL_DETAILS: ITC; ITC: 20 mM NaPi pH 6.75, 150 mM NaCl, 25 C (also 20 mM KPi pH 6.75; 20 mM MES pH 6.7, 150 mM NaCl, 10 mM CaCl2); protein in syringe, RNA in cell
ASSAY_CONDITIONS: protein: recombinant; tags: His tag removed by TEV; single strand
MEASUREMENT_LABEL: pKd
Units for pKd: none; it is -log10 of a concentration expressed in mol/L.

[ask] Please indicate pKd recorded for AAGGACUAGC (ssRNA) [Wu_10mer]
[reply] 6.64
